# target: T1, rabbit serum albumin (rabbit, UniProt P49065 25-608)
# T1 construct: also called Rabbit SA; BuSA
# T1 sequence (P49065 25-608 limits assumed): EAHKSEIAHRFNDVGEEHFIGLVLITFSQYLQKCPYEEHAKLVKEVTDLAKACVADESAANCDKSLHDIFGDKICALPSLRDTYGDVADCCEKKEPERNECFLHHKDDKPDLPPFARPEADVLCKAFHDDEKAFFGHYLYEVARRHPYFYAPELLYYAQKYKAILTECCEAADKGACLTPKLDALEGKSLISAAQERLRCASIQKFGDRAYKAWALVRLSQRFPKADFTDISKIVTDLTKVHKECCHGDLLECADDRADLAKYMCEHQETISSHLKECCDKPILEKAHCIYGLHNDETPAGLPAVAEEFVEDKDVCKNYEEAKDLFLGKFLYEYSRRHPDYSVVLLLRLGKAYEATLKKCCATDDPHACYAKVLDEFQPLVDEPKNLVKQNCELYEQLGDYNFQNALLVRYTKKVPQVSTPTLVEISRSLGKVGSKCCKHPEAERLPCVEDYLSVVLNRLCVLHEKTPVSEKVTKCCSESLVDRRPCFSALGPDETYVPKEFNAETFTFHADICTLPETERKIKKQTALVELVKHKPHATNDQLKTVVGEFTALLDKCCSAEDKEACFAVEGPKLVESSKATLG
# experimentSummary: peptide competition; head prints RSA, read as rabbit
pIC50: −log10 of the molar value. Positions of bridges follow the written chain, without caps; N, C: chain ends.
# cutoff 6 applies to pIC50; >= gives 1.0, < gives 0.0

binder: Ac-RLIEDICLPRWGCLW-NH2 (disulfide 7-13 (inferred), free peptide) [SA31]
answerLabel: 1.0
--
binder: Ac-RLIEDICLPRWGCLWEDD-NH2 (cysteine pairing not given here, free peptide) [SA21]
answerLabel: 1.0
--
binder: Ac-EDICLPRWGCLWED-NH2 (not fully specified (bridges); printed as Ac EDICLPRWGCLWEDNH2; cysteine pairing not given here, free peptide) [SA25]
answerLabel: 0.0
--
binder: Ac-EDICLPRWGCLW-NH2 (disulfide 4-10 (inferred), free peptide) [SA32]
answerLabel: 0.0
--
binder: Ac-RLIEDICLPRWGCL-NH2 (disulfide 7-13 (inferred), free peptide) [SA33]
answerLabel: 0.0
--
binder: Ac-DICLPRWGCLWED-NH2 (disulfide 3-9 (inferred), free peptide) [SA26]
answerLabel: 0.0
--
binder: Ac-RLIEDICLPRWGCLWED-NH2 (not fully specified (bridges); printed as Ac RLIEDICLPRWGCLWEDNH2; cysteine pairing not given here, free peptide) [SA22]
answerLabel: 1.0
